assay-explanation: folding stability dG unfold from chymotrypsin proteolysis; higher = more stable
Classify by measured folding stability dG unfold: Yes if it is equal to or exceeds 10 kJ/mol, No if it is smaller.

>  <input-sequence>
SAGGSAKTISIIIPFKGLTPEQAIEIAKELEKLLGTKAKIESIPGKGYILVTLELPNKTSYIIIPGSAGGSA [r15_168_TrMRF]

>  <group>
No

$$$$
>  <input-sequence>
SAGGSASTTPIKFPNGFEVTKIEEGKGLVYIKYSPENPEILEKLGVEALETNENEVIVPREAIEKKSAGGSA [r15_984_JUSTAS]

>  <group>
No

$$$$
>  <input-sequence>
SAGMKPLSDPEAQELAKEVAEKGYLVYTLKYPDGTVITVVSKSEEEVEALLEKSPYPIKEIVIIPPEKPSAG [r5_481_JUSTAS]

>  <group>
No

$$$$
>  <input-sequence>
SAGMLTYRFTVPAEEAEEAAEELAETLRRELGLPEEVKVEVKVVEYDPETGLVTVEAVVYRPLPEGVEPSAG [r5_537_TrMRF]

>  <group>
Yes

$$$$

Continue with the next sequence.
Please tell me: is the sequence SAGGSAGGSEKLEIVKAFVFENEVILIVKKEKEYYVLKLKFKDGKIESLEFIGPVPENDPSLGSAGGSAGGS [r12_154_TrMRF] at or over 10 kJ/mol in terms of folding stability dG unfold?
Yes
